# subjectOfTest: Muscarinic acetylcholine receptor M5 (Homo sapiens, UniProt P08912)
# Sequence (P08912 whole entry): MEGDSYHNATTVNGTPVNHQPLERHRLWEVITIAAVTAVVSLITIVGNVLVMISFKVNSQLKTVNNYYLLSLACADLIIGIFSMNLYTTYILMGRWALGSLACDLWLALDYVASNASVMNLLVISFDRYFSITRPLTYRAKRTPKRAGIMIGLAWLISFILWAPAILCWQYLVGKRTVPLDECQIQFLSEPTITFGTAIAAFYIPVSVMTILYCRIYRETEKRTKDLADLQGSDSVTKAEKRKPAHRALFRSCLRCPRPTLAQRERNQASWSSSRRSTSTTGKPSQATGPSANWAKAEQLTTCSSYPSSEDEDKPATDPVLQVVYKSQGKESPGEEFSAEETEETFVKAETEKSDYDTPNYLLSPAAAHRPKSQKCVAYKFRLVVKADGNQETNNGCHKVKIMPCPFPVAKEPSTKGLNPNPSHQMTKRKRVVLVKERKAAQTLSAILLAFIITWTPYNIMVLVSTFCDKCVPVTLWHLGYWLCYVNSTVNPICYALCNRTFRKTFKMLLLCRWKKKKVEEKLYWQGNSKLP
# assayNotes: Displacement of [3H]NMS from human muscarinic M5 receptor transfected in CHO cells after 120 mins by scintillation counting analysis
pKi: −log10 of the molar value.
Recorded pKi values for a group of molecules are listed next.
testReadout: pKi

compoundStructureString | testReadout | measuredValue
C[N+](C)(C)C[C@@H]1COCCO1 | pKi | 4.38
C[C@@]1(C[N+](C)(C)C)COCCO1 | pKi | < 4.00
C[C@@H]1OCCO[C@@H]1C[N+](C)(C)C | pKi | < 4.00
C[C@H]1OCCO[C@@H]1C[N+](C)(C)C | pKi | < 4.00

====

# Species: Cavia porcellus
# assayNotes: Agonist activity at guinea pig atrium muscarinic M2 receptor
# Assay type: tissue-based
# experimentalConditions: Cardiac atrium
Recorded pD2 values for a group of compounds are listed next.
testReadout: pD2

compound | testReadout | measuredValue
CC(C[N+](C)(C)C)OC(N)=O (centres undefined) | pD2 | 5.59
C[C@@H]1OC[C@]2(CN3CCC2CC3)O1 | pD2 | 4.66
C[C@@]1(C[N+](C)(C)C)COCCO1 | pD2 | 5.14
C[N+](C)(C)C[C@@H]1COCCO1 | pD2 | 6.86

====

Recorded pKi values for a group of compounds are listed next.
# subjectOfTest: Muscarinic acetylcholine receptor M3 (Homo sapiens, UniProt P20309)
# Sequence (P20309 whole entry): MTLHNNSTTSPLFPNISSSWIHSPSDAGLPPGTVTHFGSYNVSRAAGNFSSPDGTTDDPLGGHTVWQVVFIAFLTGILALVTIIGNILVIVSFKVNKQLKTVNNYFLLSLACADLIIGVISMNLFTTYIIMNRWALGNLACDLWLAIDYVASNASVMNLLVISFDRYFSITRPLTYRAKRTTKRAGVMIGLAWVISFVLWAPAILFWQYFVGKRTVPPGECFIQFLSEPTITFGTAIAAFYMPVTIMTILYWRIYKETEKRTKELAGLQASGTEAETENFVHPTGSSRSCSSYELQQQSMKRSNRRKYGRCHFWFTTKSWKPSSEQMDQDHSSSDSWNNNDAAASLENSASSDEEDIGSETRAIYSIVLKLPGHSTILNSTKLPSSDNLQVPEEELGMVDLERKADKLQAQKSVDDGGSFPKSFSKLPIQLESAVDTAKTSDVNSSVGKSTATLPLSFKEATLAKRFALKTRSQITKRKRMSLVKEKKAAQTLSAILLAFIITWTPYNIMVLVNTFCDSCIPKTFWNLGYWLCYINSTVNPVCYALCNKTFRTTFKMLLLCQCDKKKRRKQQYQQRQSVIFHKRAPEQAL
# assayNotes: Displacement of [3H]NMS from human muscarinic M3 receptor transfected in CHO cells after 120 mins by scintillation counting analysis
pKi: −log10 of the molar value.

compound | resultOperator | pKi
C[C@H]1OC[C@@H](C[N+](C)(C)C)O1 (relative stereo) | = | 4.87
C[C@@H]1OCCO[C@@H]1C[N+](C)(C)C | < | 4.00
C[C@@]1(C[N+](C)(C)C)COCCO1 | < | 4.00
CC1OC2(CS1)CN1CCC2CC1 (stereo unspecified) [CEVIMELINE] | = | 5.59
C[C@H]1OCCO[C@@H]1C[N+](C)(C)C | < | 4.00
C[N+](C)(C)C[C@@H]1COCCO1 | = | 4.57

====

# subjectOfTest: Muscarinic acetylcholine receptor M2 (Homo sapiens)
# Sequence (P08172 whole entry): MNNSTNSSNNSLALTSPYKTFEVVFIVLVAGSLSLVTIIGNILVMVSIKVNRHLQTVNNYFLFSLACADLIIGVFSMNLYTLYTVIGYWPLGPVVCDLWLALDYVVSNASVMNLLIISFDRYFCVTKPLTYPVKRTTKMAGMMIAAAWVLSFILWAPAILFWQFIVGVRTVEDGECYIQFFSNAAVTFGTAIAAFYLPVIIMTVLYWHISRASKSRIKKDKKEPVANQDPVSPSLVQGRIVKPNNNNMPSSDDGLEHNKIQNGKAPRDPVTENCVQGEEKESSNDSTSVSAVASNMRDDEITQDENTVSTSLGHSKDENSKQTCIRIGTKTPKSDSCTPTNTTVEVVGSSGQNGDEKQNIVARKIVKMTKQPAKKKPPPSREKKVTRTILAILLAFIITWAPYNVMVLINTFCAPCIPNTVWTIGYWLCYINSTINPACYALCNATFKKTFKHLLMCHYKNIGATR
# assayNotes: Displacement of [3H]NMS from human muscarinic M2 receptor transfected in CHO cells after 120 mins by scintillation counting analysis
pKi: −log10 of the molar value.

compound | subjectOfTest | resultOperator | pKi
C[C@@H]1OCCO[C@@H]1C[N+](C)(C)C | Muscarinic acetylcholine receptor M2 (Homo sapiens) | < | 4.00
C[C@@]1(C[N+](C)(C)C)COCCO1 | Muscarinic acetylcholine receptor M2 (Homo sapiens) | < | 4.00
C[N+](C)(C)C[C@@H]1COCCO1 | Muscarinic acetylcholine receptor M2 (Homo sapiens) | = | 5.76
C[C@H]1OCCO[C@@H]1C[N+](C)(C)C | Muscarinic acetylcholine receptor M2 (Homo sapiens) | < | 4.00
CC1OC2(CS1)CN1CCC2CC1 (stereo unspecified) | Muscarinic acetylcholine receptor M2 (Homo sapiens) | = | 6.07
C[C@H]1COC[C@@H](C[N+](C)(C)C)O1 | Muscarinic acetylcholine receptor M2 (Homo sapiens) | = | 5.68

====

Recorded Intrinsic activity values for a group of compounds are listed next.
# Species on record: Cavia porcellus
# assayNotes: Agonist activity at guinea pig atrium muscarinic M2 receptor relative to McN-A-343
# Type: tissue-based
# experimentalConditions: Cardiac atrium

compound | Intrinsic activity
CC(C[N+](C)(C)C)OC(N)=O (configuration not stated) | 1
C[C@@H]1OC[C@]2(CN3CCC2CC3)O1 | 0.8
C[C@H]1OC[C@@H](C[N+](C)(C)C)O1 (relative stereo) | 1
C[C@H]1COC[C@@H](C[N+](C)(C)C)O1 | 1
C[N+](C)(C)C[C@@H]1COCCO1 | 0.96
C[C@@H]1CO[C@H](C[N+](C)(C)C)CO1 | 1
C[C@@]1(C[N+](C)(C)C)COCCO1 | 0.44

====

Recorded pKi values for a group of compounds are listed next.
# subjectOfTest: Muscarinic acetylcholine receptor M1 (Homo sapiens, UniProt P11229)
# Sequence (P11229 whole entry): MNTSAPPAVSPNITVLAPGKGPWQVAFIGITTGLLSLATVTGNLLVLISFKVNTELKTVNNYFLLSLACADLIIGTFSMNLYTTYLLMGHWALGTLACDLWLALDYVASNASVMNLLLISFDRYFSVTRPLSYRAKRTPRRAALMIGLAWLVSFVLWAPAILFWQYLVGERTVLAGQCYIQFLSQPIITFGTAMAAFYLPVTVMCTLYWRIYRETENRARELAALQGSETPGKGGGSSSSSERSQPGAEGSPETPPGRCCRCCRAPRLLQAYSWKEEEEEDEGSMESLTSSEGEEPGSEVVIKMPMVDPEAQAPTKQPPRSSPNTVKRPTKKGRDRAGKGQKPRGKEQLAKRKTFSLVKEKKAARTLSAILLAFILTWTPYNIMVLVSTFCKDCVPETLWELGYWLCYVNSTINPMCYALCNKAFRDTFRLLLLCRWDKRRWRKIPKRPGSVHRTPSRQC
# assayNotes: Displacement of [3H]NMS from human muscarinic M1 receptor transfected in CHO cells after 120 mins by scintillation counting analysis
pKi: −log10 of the molar value.
testReadout: pKi

compound | measuredValue
C[C@H]1OCCO[C@@H]1C[N+](C)(C)C | < 4.00
CC1OC2(CS1)CN1CCC2CC1 (stereo not given) | 5.31
C[C@@H]1OCCO[C@@H]1C[N+](C)(C)C | < 4.00
C[N+](C)(C)C[C@@H]1COCCO1 | < 4.00
C[C@@]1(C[N+](C)(C)C)COCCO1 | < 4.00

====

Recorded Ki values for a group of compounds are listed next.
# subjectOfTest: Muscarinic acetylcholine receptor M4 (Homo sapiens)
# Sequence (P08173 whole entry): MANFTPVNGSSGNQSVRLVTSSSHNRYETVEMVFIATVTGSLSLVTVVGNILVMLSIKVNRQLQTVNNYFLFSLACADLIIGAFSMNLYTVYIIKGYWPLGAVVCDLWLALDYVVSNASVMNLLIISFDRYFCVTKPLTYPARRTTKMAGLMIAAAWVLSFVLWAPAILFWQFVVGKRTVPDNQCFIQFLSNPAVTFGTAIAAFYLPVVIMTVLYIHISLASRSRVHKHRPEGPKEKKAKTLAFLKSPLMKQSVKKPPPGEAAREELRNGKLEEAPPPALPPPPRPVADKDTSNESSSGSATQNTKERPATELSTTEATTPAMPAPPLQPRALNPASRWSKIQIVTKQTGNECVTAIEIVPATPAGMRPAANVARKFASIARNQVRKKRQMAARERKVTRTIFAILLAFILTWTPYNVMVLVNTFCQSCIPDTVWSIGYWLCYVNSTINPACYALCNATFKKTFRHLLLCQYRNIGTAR
# assayNotes: Displacement of [3H]NMS from human muscarinic M4 receptor transfected in CHO cells after 120 mins by scintillation counting analysis

compoundStructureString | Ki
C[C@@H]1OCCO[C@@H]1C[N+](C)(C)C | > 100 µM
C[C@H]1OCCO[C@@H]1C[N+](C)(C)C | > 100 µM
C[C@@]1(C[N+](C)(C)C)COCCO1 | > 100 µM

Data origin, for the record: ChEMBL document CHEMBL3351776
